As shown below, each of these compounds has a reported Ki value.
Target: human IRAK4 (Homo sapiens (Human), UniProt Q9NWZ3)
Sequence (Q9NWZ3 whole entry): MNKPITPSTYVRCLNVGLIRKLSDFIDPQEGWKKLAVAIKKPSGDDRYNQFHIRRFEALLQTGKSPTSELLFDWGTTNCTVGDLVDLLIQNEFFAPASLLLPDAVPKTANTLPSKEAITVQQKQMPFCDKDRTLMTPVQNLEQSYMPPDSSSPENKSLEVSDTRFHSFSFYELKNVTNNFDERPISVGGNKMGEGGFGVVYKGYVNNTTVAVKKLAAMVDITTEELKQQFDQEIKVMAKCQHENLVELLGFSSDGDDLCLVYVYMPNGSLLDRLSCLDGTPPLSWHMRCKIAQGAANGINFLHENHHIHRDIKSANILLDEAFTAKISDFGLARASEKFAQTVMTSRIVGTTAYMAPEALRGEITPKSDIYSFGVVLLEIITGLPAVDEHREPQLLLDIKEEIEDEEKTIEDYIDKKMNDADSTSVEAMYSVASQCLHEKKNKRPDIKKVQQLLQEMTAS
Test: IRAK4 kinase inhibition, Transcreener fluorescence polarization ADP assay
Conditions: recombinant full-length His6-IRAK4; 125 uM ATP; 90 min; Ki computed using ATP Km 642 uM

>  <Compound>
O=C(Nc1cc2c(cc1N1CCOCC1)C(=O)N(C[C@H]1CCC[C@@H]1O)C2)c1cnn2cccnc12 (stereo in doubt) [Example 550]

>  <Ki [nM]>
2.1

$$$$
>  <Compound>
CC1(CO)Cc2cc(NC(=O)c3cnn4cccnc34)c(N3CCC(F)(F)CC3)cc2O1 (centres unmarked) [Example 26]

>  <Ki [nM]>
5.1

$$$$
>  <Compound>
CC1(CO)Cc2cc(NC(=O)c3cnn4cccnc34)c(N3CCN(CC(F)F)CC3)cc2O1 (centres unmarked) [Example 19]

>  <Ki [nM]>
3.3

$$$$
>  <Compound>
CN1CCC(N2Cc3cc(NC(=O)c4cnn5cccnc45)c(N4CCOCC4)cc3C2=O)CC1 [Example 180]

>  <Ki [nM]>
3.8

$$$$
>  <Compound>
O=C(Nc1cc2c(cc1N1CCOCC1)C(=O)N(CCO)C2)c1cnn2cccnc12 [Example 179]

>  <Ki [nM]>
31

$$$$
>  <Compound>
CC1(C(=O)O)Cc2cc(NC(=O)c3cnn4cccnc34)c(N3CCOCC3)cc2O1 (centres unmarked) [Example 38]

>  <Ki [nM]>
360

$$$$
>  <Compound>
CC1(CO)CCN(c2cc3c(cc2NC(=O)c2cnn4cccnc24)CC(C)(C)O3)C1 (centres unmarked) [Example 18]

>  <Ki [nM]>
21

$$$$
>  <Compound>
CC(C)N1Cc2cc(NC(=O)c3cnn4cc(C(N)=O)cnc34)c(N3CCOCC3)cc2C1=O [Example 486]

>  <Ki [nM]>
37

$$$$
